The measurements presented in this section are drawn from ChEMBL document CHEMBL1155020.

target: Histone deacetylase; experiment: Inhibition of HDAC in human HeLa cells; format: cell-based
Classes (IC50): I = under 900 nM, II = from 900 nM up to 5000 nM, III = 5000 nM and over

GET /class?item= CCSC(=S)SCC(=O)c1cccc(S(=O)(=O)Nc2cccc(C(N)=O)c2)c1
II

Here is the next molecule: CCSC(=S)SCC(=O)c1ccc(C(=O)NCc2ccccc2)cc1
II

Here is the next molecule: CCSC(=S)SCC(=O)c1ccc(OC)cc1
II

Here is the next molecule: COCCSC(=S)SCC(=O)c1ccc(OC)cc1
III

Here is the next molecule: CCSC(=S)SCC(=O)c1ccc(CC(=O)NCCOc2ccccc2)s1
I

Here is the next molecule: CCSC(=S)SCC(=O)c1ccc(CC(=O)Nc2ccc(OC)cc2)s1
III

Here is the next molecule: CCSC(=S)SCC(=O)c1ccc(CC(=O)NCc2ccc(OC)cc2)s1
I

Here is the next molecule: CCCC(=S)SCC(=O)c1ccc(NC(C)=O)cc1
II

Here is the next molecule: CCSC(=S)SCC(=O)c1cccc(C(=O)NCCOc2ccccc2)c1
I

Here is the next molecule: CCOC(=O)SCC(=O)c1ccc(OC)cc1
III

Here is the next molecule: CCSC(=S)SCC(=O)c1ccc(NC(C)=O)cc1
I

Here is the next molecule: CCSC(=S)SCC(=O)c1cccc(NC(C)=O)c1
II

----------
molecular target: Histone deacetylase; experiment: Inhibition of HDAC in human HeLa cells; assay type: cell-based
Classes (IC50): bottom range (below 800 nM), center range (800 nM to below 3000 nM), top range (3000 nM or more)

Solved entries (count: 5):
>>> classification("CCNC(=S)SCC(=O)c1ccc(NC(C)=O)cc1")
"center range"
>>> classification("CCCC(=S)SCC(=O)c1ccc(OC)cc1")
"top range"
>>> classification("CCSC(=S)SCC(=O)c1cccc(NC(=O)c2cccnc2)c1")
"bottom range"
>>> classification("CCSC(=S)SCC(=O)c1ccc(C(=O)Nc2ccccc2)s1")
"bottom range"
>>> classification("CCSC(=S)SCC(=O)c1ccc(C(=O)NCCOc2ccccc2)cc1")
"center range"

GET /class?item= CCSC(=S)SCC(=O)c1ccc(CN(C)C(C)=O)cc1
top range

Here is the next compound: CCSC(=S)SCC(=O)c1ccc(CNC(=O)c2ccccc2)cc1
bottom range

Here is the next compound: CCSC(=S)SCC(=O)c1ccc(C(=O)NCc2cc(C)cc(C)c2)s1
center range

Here is the next compound: CCSC(=S)SCC(=O)c1ccc(S(=O)(=O)Nc2ccc(Cl)cc2)cc1
bottom range

----------
target: Histone deacetylase; test: Inhibition of HDAC in human HeLa cells; format: cell-based
Measured attribute: log10(IC50) (log10 of the value in nM)
Heads up: the numbers are on a log10 scale; they represent IC50 in nM.

Answered cases to consult:
>>> data_value("CCSC(=S)SCC(=O)c1ccc(NC(=O)Nc2ccccc2)cc1")
3.08
>>> data_value("CCSC(=S)SCC(=O)c1ccc(-c2ccc(N)cn2)s1")
3.07

Please report log10(IC50) for every entry that follows.
1. CCSC(=S)SCC(=O)c1ccc(S(=O)(=O)Nc2ccc(OC)cc2)cc1
2. COc1ccc(C(=O)CSC(=S)SCCOc2ccccc2)cc1
3. CCSC(=S)SCC(=O)c1ccc(NC(=O)c2cccnc2)cc1
4. CCSC(=S)SCC(=O)c1ccc(C)cc1

1: 2.58; 2: 4.06; 3: 2.94; 4: 4.91

----------
biological target: Protein deacetylase HDAC6 (Homo sapiens); experiment: Inhibition of recombinant HDAC6 expressed in HEK293 cells
Consider the following compounds; for each one, report its IC50.
Give bare numbers, in nM.

Answered cases to consult:
>>> data_value("COCCSC(=S)SCC(=O)c1ccc(OC)cc1")
2130
>>> data_value("CCSC(=S)SCC(=O)c1ccc(C(=O)Nc2ccccc2)s1")
245
>>> data_value("CCCC(=S)SCC(=O)c1ccc(NC(C)=O)cc1")
23
>>> data_value("CCSC(=S)SCC(=O)c1ccc(C(=O)NCc2ccccc2)cc1")
830
>>> data_value("CCSC(=S)SCC(=O)c1ccc(NS(=O)(=O)c2ccc(Cl)cc2)cc1")
979

Please report IC50 for every entry that follows.
1. CCSC(=S)SCC(=O)c1ccc(C(=O)N[C@@H](C)c2ccccc2)s1
2. CCSC(=S)SCC(=O)c1ccc(C(=O)Nc2ccc(Cl)cc2)cc1
3. CCNC(=S)SCC(=O)c1ccc(OC)cc1
4. CCSC(=S)SCC(=O)c1ccc(OC)cc1
5. CCNC(=O)SCC(=O)c1ccc(OC)cc1
6. CCSC(=S)SCC(=O)c1ccc(S(=O)(=O)Nc2ccc(Cl)cc2)cc1
7. CCSC(=S)SCC(=O)c1ccc(CCNC(C)=O)cc1
8. CCSC(=S)SCC(=O)c1ccc(C(=O)NCCOc2ccccc2)cc1

1. 135
2. 1450
3. 94
4. 1220
5. 132
6. 340
7. 102
8. 483

Please report IC50 for every entry that follows.
1. CCSC(=S)SCC(=O)c1ccc(NS(=O)(=O)c2ccccc2)cc1
2. CCSC(=S)SCC(=O)c1ccc(NC(=O)c2ccccc2)cc1
3. CCSC(=S)SCC(=O)c1cccc(NC(=O)c2cnc3ccccc3c2)c1

[382, 175, 89]

Please report IC50 for every entry that follows.
1. CCOC(=S)SCC(=O)c1ccc(NC(C)=O)cc1
2. CCSC(=S)SCC(=O)c1ccc(NC(=O)Nc2ccccc2)cc1
3. CCSC(=S)SCC(=O)c1ccc(C(=O)NCc2cc(C)cc(C)c2)s1
4. CCOC(=O)SCC(=O)c1ccc(OC)cc1
5. CCSC(=S)SCC(=O)c1ccc(CN(C)C(C)=O)cc1
6. CCNC(=S)SCC(=O)c1ccc(NC(C)=O)cc1

1: 90; 2: 606; 3: 396; 4: 5360; 5: 256; 6: 18

Please report IC50 for every entry that follows.
1. CCSC(=S)SCC(=O)c1cccc(C(=O)Nc2ccccc2)c1
2. CCSC(=S)SCC(=O)c1cccc(S(=O)(=O)N(C)c2ccc(OC)cc2)c1

1. 517
2. 2040

----------
Consider the following molecules; for each one, report its log10 of IC50.
biological target: Histone deacetylase; assay: Inhibition of nuclear HDAC isolated from human HeLa cells; type: cell-based
Heads up: the numbers are on a log10 scale; they represent IC50 in nM.

Answered cases to consult:
>>> data_value("CCSC(=S)SCC(=O)c1ccc(NC(=O)c2cccnc2)cc1")
2.24
>>> data_value("CCSC(=S)SCC(=O)c1ccc(Nc2ncnc3ccccc23)cc1")
2.58
>>> data_value("COCCSC(=S)SCC(=O)c1ccc(OC)cc1")
2.47
>>> data_value("CCSC(=S)SCC(=O)c1ccc(NC(=O)c2ccccc2)cc1")
1.87
>>> data_value("CCSC(=S)SCC(=O)c1cccc(NC(C)=O)c1")
2.70
>>> data_value("CCSC(=S)SCC(=O)c1ccc(CC(=O)Nc2ccc(OC)cc2)s1")
1.00
>>> data_value("CCCC(=S)SCC(=O)c1ccc(NC(C)=O)cc1")
1.94
>>> data_value("CCSC(=S)SCC(=O)c1ccc(C(=O)Nc2ccc(Cl)cc2)cc1")
1.90

Please report log10 of IC50 for every entry that follows.
1. COc1ccc(C(=O)CSC(=S)SCCNC(C)=O)cc1
2. CCSC(=S)SCC(=O)c1cccc(NC(=O)c2ccccc2)c1
3. CCSC(=S)SCC(=O)c1cccc(S(=O)(=O)Nc2cccc(C(N)=O)c2)c1
4. CCSC(=S)SCC(=O)c1ccc(CC(=O)NCCOc2ccccc2)s1
5. COc1ccc(C(=O)CSC(=S)SCCOc2ccccc2)cc1

2.67
2.08
1.99
1.26
2.11

----------
biological target: Protein deacetylase HDAC6 (Homo sapiens, UniProt Q9UBN7); assay: Inhibition of recombinant HDAC6 expressed in HEK293 cells
Sequence (Q9UBN7 whole entry): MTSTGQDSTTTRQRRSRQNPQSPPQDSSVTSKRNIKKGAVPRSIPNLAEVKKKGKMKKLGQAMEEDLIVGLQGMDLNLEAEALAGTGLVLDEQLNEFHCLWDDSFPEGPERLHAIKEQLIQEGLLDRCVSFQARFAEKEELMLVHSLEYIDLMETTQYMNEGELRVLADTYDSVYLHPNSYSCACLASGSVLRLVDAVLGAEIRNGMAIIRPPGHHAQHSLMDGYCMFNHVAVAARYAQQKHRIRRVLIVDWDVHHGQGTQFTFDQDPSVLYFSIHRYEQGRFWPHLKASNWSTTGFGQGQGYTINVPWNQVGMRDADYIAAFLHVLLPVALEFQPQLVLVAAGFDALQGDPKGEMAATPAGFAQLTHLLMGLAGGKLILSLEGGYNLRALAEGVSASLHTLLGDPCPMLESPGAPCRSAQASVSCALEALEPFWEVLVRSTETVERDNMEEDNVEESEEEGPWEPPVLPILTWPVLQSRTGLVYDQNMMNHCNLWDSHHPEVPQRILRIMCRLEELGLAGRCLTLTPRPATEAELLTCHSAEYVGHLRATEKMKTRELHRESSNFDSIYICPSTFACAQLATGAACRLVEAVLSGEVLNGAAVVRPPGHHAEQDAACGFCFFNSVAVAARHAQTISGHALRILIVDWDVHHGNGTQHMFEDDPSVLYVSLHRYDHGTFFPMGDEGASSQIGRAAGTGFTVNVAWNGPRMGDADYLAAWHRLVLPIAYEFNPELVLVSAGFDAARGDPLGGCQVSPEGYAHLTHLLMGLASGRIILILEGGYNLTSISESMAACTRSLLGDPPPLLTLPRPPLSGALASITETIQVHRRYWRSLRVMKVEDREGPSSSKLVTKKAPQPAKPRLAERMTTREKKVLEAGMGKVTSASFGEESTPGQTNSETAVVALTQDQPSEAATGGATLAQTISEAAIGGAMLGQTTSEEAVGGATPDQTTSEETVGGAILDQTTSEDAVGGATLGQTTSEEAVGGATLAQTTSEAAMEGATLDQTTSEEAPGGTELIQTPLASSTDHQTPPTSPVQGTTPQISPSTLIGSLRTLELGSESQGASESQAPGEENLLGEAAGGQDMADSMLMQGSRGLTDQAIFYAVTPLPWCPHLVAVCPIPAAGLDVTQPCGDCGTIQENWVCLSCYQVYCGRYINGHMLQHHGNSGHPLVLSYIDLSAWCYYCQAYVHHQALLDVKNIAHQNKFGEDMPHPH
Consider the following compounds; for each one, report its pIC50.
Give bare numbers, as −log10 of the molar value.

Answered cases to consult:
>>> data_value("CCSC(=S)SCC(=O)c1cccc(S(=O)(=O)Nc2ccc3c(c2)OCO3)c1")
6.37
>>> data_value("COc1ccc(C(=O)CSC(=S)SCCOc2ccccc2)cc1")
5.34

Using the record for CCSC(=S)SCC(=O)c1ccc(Nc2ncnc3ccccc23)cc1 , report its pIC50.
6.41

----------
target: Histone deacetylase; assay: Inhibition of nuclear HDAC isolated from human HeLa cells; type: cell-based
Consider the following compounds; for each one, report its IC50.
Numbers only, in µM.

Answered cases to consult:
>>> data_value("CCOC(=S)SCC(=O)c1ccc(OC)cc1")
0.811
>>> data_value("CCSC(=S)SCC(=O)c1cccc(NC(=O)c2cccnc2)c1")
0.184
>>> data_value("CCSC(=S)SCC(=O)c1ccc(OC)cc1")
0.375
>>> data_value("CCSC(=S)SCC(=O)c1cccc(S(=O)(=O)N(C)c2ccc(OC)cc2)c1")
0.11
>>> data_value("CCSC(=S)SCC(=O)c1ccc(CN(C)C(C)=O)cc1")
0.384
>>> data_value("CCSC(=S)SCC(=O)c1ccc(C(=O)NCc2cc(C)cc(C)c2)s1")
0.015

Please report IC50 for every entry that follows.
1. CCSC(=S)SCC(=O)c1ccc(S(=O)(=O)Nc2ccc(Cl)cc2)cc1
2. CCSC(=S)SCC(=O)c1cccc(NC(=O)c2cnc3ccccc3c2)c1

0.008
0.036
